Test system: 945468-187-T-J2-PDC spheroids viability
Experiment: Anticancer human tumor 945468-187-T-J2-PDC patient-derived rectal carcinoma cell line growth inhibition [PI3K]
Settings: curve of first compound; second compound 0.316 µM; spheroids with HUVEC and MSC
Text: Combinatorial screen of targeted agents with the PI3K inhibitors inavolisib, alpelisib, duvelisib, and copanlisib in multi-cell type tumor spheroids A high-throughput screen of multi-cell type tumor spheroids was designed to identify active combinations of targeted small molecules and PI3K pathway inhibitors. […] Compounds. […] If the clinical Cmax for an agent had not been determined, the highest concentration tested was 10 microM. […]
value-kind: IC50

Examples with answers:
compound	tgt	IC50
CC1(C)CCC(Nc2ncc(C(F)(F)F)c(-c3c[nH]c4c(P(C)(C)=O)c(C#N)ccc34)n2)CN1 (stereo not given) + CC(Nc1ncnc2nc[nH]c12)c1cc2cccc(Cl)c2c(=O)n1-c1ccccc1	945468-187-T-J2-PDC spheroids viability	0.736 µM
CC(C)NCC(C(=O)N1CCN(c2ncnc3c2C(C)CC3O)CC1)c1ccc(Cl)cc1 (stereo not given) + CC(Nc1ncnc2nc[nH]c12)c1cc2cccc(Cl)c2c(=O)n1-c1ccccc1	945468-187-T-J2-PDC spheroids viability	> 10 µM
Cn1ncnc1[C@H]1c2n[nH]c(=O)c3cc(F)cc(c23)N[C@@H]1c1ccc(F)cc1 + COc1c(OCCCN2CCOCC2)ccc2c3n(c(=NC(=O)c4cnc(N)nc4)nc12)CCN3	945468-187-T-J2-PDC spheroids viability	< 0.000316 µM

The recorded IC50 with 945468-187-T-J2-PDC spheroids viability for Cn1nccc1Nc1nccc(-c2ccn(C(CO)c3ccc(Cl)c(F)c3)c(=O)c2)n1 (stereo not given) + Cc1nc(NC(=O)N2CCCC2C(N)=O)sc1-c1ccnc(C(C)(C)C(F)(F)F)c1 was > 10 µM

The recorded IC50 with 945468-187-T-J2-PDC spheroids viability for C[C@@H](NC(=O)c1ncnc(N)c1Cl)c1ncc(C(=O)Nc2cc(C(F)(F)F)c(Cl)cn2)s1 + Cc1nc(NC(=O)N2CCCC2C(N)=O)sc1-c1ccnc(C(C)(C)C(F)(F)F)c1 was > 10 µM

====

Tested on: 945468-187-T-J2-PDC spheroids viability
Test: Anticancer human tumor 945468-187-T-J2-PDC cell line growth inhibition [PI3K];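 further: spheroids exposed to compounds for seven days before reading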
Details: second compound 0.1 µM; first compound 0.3 µM; stronger effect = lower value; spheroids with HUVEC and MSC
Excerpt: Combinatorial screen of targeted agents with the PI3K inhibitors inavolisib, alpelisib, duvelisib, and copanlisib in multi-cell type tumor spheroids A high-throughput screen of multi-cell type tumor spheroids was designed to identify active combinations of targeted small molecules and PI3K pathway inhibitors. […] Compounds. […] If the clinical Cmax for an agent had not been determined, the highest concentration tested was 10 microM. […]
Documented viability, T/C across a set of compounds
Enter your answer as a number in %; do not include the unit.

compound	value-kind	observed-result
Cn1cnc2c(F)c(Nc3ccc(Br)cc3Cl)c(C(=O)NOCCO)cc21 + COc1c(OCCCN2CCOCC2)ccc2c3n(c(=NC(=O)c4cnc(N)nc4)nc12)CCN3	viability, T/C	74.1

The recorded viability, T/C with 945468-187-T-J2-PDC spheroids viability for Cn1cnc2c(F)c(Nc3ccc(Br)cc3Cl)c(C(=O)NOCCO)cc21 + CC(Nc1ccc2c(c1)OCCn1cc(N3C(=O)OCC3C(F)F)nc1-2)C(N)=O was 80.4

The recorded viability, T/C with 945468-187-T-J2-PDC spheroids viability for Cn1cnc2c(F)c(Nc3ccc(Br)cc3Cl)c(C(=O)NOCCO)cc21 + CC(Nc1ncnc2nc[nH]c12)c1cc2cccc(Cl)c2c(=O)n1-c1ccccc1 was 93

The recorded viability, T/C with 945468-187-T-J2-PDC spheroids viability for Cn1cnc2c(F)c(Nc3ccc(Br)cc3Cl)c(C(=O)NOCCO)cc21 + Cc1nc(NC(=O)N2CCCC2C(N)=O)sc1-c1ccnc(C(C)(C)C(F)(F)F)c1 was 77.4
